Test system: P12-ICHIKAWA;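 also: ALL cell lines in 384-well plates, five doses spanning 10,000-fold, each plate scaled between vehicle and 100 µmol/L benzalkonium chloride controls, sDSS an adapted area-under-curve metric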
assay-comment: selective drug sensitivity score (sDSS, relative to normal bone marrow) (sDSS (score)); higher = more potent and effective on the cell line relative to normal bone marrow cells
setup-conditions: 72 h
Below: a set of entries, each annotated with reported selective drug sensitivity score.
quantity-kind: selective drug sensitivity score

O=C(O)C(=O)O.[NH-][C@@H]1CCCC[C@H]1[NH-].[Pt+2] [Oxaliplatin] (top concentration 100000 nM): 8.32
Cc1cc2c(C(C)C)c(O)c(O)c(C=O)c2c(O)c1-c1c(C)cc2c(C(C)C)c(O)c(O)c(C=O)c2c1O [AT-101] (top concentration 100000 nM): 2.78
CC(C)NC(=O)COc1cccc(-c2nc(Nc3ccc4[nH]ncc4c3)c3ccccc3n2)c1 [KD025] (top concentration 5000 nM): -4.06
C[C@@H](Oc1cc(-c2cnn(C3CCNCC3)c2)cnc1N)c1c(Cl)ccc(F)c1Cl [Crizotinib] (top concentration 1000 nM): -0.54
Cn1cncc1[C@@](N)(c1ccc(Cl)cc1)c1ccc2c(c1)c(-c1cccc(Cl)c1)cc(=O)n2C [Tipifarnib] (top concentration 10000 nM): 9.6
COC(=O)c1ccc2c(c1)NC(=O)/C2=C(\Nc1ccc(N(C)C(=O)CN2CCN(C)CC2)cc1)c1ccccc1 [Nintedanib] (top concentration 10000 nM): -2.96
C=CC(=O)N1CCC[C@@H](n2nc(-c3ccc(Oc4ccccc4)cc3)c3c(N)ncnc32)C1 [Ibrutinib] (top concentration 1000 nM): 0
CC1(C)CNc2cc(NC(=O)c3cccnc3NCc3ccncc3)ccc21 [Motesanib] (top concentration 10000 nM): -0.22
C[C@H]1CNCCCN1S(=O)(=O)c1cccc2cncc(F)c12 [Ripasudil] (top concentration 10000 nM): 1.18
Nc1cccc2c1CN(C1CCC(=O)NC1=O)C2=O (stereo unspecified) [Lenalidomide] (top concentration 100000 nM): -2.28
CNC(=O)c1cccc2cc(Oc3ccnc4cc(OCC5(N)CC5)c(OC)cc34)ccc12 [Lucitanib] (top concentration 10000 nM): 1.28
Cc1ccc(C(=O)Nc2cccc(C(F)(F)F)c2)cc1Nc1nc(-c2cccnc2)nc2c1cnn2C [NVP-BHG712] (top concentration 10000 nM): 3.08
Cc1sc2c(c1C)C(c1ccc(Cl)cc1)=N[C@@H](CC(=O)Nc1ccc(O)cc1)c1nnc(C)n1-2 [Birabresib] (top concentration 10000 nM): 5.22
CC(C)(C)c1cnc(CSc2cnc(NC(=O)C3CCNCC3)s2)o1 [SNS-032] (top concentration 10000 nM): -5.04
CC(C)n1cnc2c(NCCc3ccc(O)cc3)nc(-c3csc4ccccc34)nc21 [StemRegenin_1] (top concentration 10000 nM): 0.2
CC(C)C(=O)Nc1ccc([N+](=O)[O-])c(C(F)(F)F)c1 [Flutamide] (top concentration 10000 nM): 0.74
NC(=S)N/N=C/c1ncccc1N [Triapine] (top concentration 10000 nM): 5.18
COc1cc2ncnc(Nc3ccc(F)c(Cl)c3)c2cc1NC(=O)/C=C/CN1CCCCC1 [Dacomitinib] (top concentration 1000 nM): -1.44
Cc1c(Cn2c(C)nc3c(C(=O)O)cc(N4CCOCC4)cc32)cccc1C(F)(F)F (top concentration 10000 nM): -0.02
CC(C)Cn1cnc2c(N)nc3ccccc3c21 [Imiquimod] (top concentration 2500 nM): 0
CC[C@H](C)C(=O)O[C@H]1C[C@H](O)C=C2C=C[C@H](C)[C@H](CC[C@@H](O)C[C@@H](O)CC(=O)O)[C@H]21 [Pravastatin] (top concentration 10000 nM): -0.66
Nc1nc2cc(-c3ccc4ncc(C(=O)N5CCOCC5)n4c3)ccc2o1 [Serabelisib] (top concentration 10000 nM): -1.54
CCn1cc(-c2ccnc3[nH]c(-c4cccc(CN(C)C)c4)cc23)c(-c2ccc(NC(=O)N(C)C)cc2)n1 (top concentration 1000 nM): 15.4
O=C(Nc1cccc(Nc2ncc(Br)c(NCCc3cnc[nH]3)n2)c1)N1CCCC1 [BX-912] (top concentration 10000 nM): 10.2
C[C@]12CC[C@H](O)CC1=CC[C@@H]1[C@@H]2CC[C@]2(C)C(c3cccnc3)=CC[C@@H]12 [Abiraterone] (top concentration 5000 nM): -0.12
C=CC(=O)N1CCC(Oc2cc3c(Nc4ccc(Cl)c(Cl)c4F)ncnc3cc2OC)CC1 [Poziotinib] (top concentration 1000 nM): -0.22
